Assayed system: GST-PPARG-LBD (Homo sapiens (Human))
Assay procedure: Lanthascreen PPARG competitive binding assay (Invitrogen, TR-FRET)
Condition details: Lanthascreen competitive binding; NA = not active; inc = incomplete curve; read-out: IC50 (nM) Lantha
Method: Lanthascreen PPARG Competitive Binding Assay (Invitrogen) The assay was performed according to manufacturer protocol. […] Experiment was performed in triplicate, and incubated for 2 hours in the dark prior to assay read in Perkin Elmer ViewLux ultra HTS microplate reader. FRET signal was measured by excitation at 340 nm and emission at 520 nm for fluorescein and 490 nm for terbium. Fold change over DMSO was calculated using GraphPad Prism Software (La Jolla, Calif.) by calculating 520 nm/490 nm ratio. […]
// NB: equality with 100 nM counts as FALSE; only IC50 strictly below is TRUE

Criterion: IC50 strictly below 100 nM. Is it met by Cc1c(C)n(Cc2ccc(-c3ccccc3C(=O)O)cc2)c2ccc(C(=O)NCc3cccc(OC(F)(F)F)c3)cc12 [compound 5] ?
FALSE

Others:
Criterion: IC50 strictly below 100 nM. Is it met by Cc1c(C)n(Cc2ccc(-c3ccccc3C(=O)O)cc2)c2ccc(C(=O)N[C@@H](C)c3ccc(Cl)nc3)cc12 [Example 262] ?
FALSE

Criterion: IC50 strictly below 100 nM. Is it met by Cc1c(C)n(Cc2ccc(-c3ccccc3C(=O)O)cc2)c2ccc(C(=O)NCc3ccc(Cl)cc3)cc12 [compound 14] ?
TRUE

Criterion: IC50 strictly below 100 nM. Is it met by Cc1c(C)n(Cc2ccc(-c3ccccc3C(=O)O)cc2)c2ccc(C(=O)N[C@H](C)c3cccc(Br)n3)cc12 [Example 271] ?
TRUE

Criterion: IC50 strictly below 100 nM. Is it met by Cc1c(C)n(Cc2ccc(-c3ccccc3C(=O)O)cc2)c2ccc(C(=O)NCc3ccccc3Cl)cc12 [Example 108] ?
TRUE

====

# EC50 per record follows
Assayed system: Gal-4-PPAR (human PPAR LBD fused to GAL4 DNA-binding domain) (Homo sapiens (Human))
Assay procedure: GAL4-PPARG LBD / UAS-luciferase transactivation assay in HEK 293T cells
Type: cell-based
Condition details: GAL4 transactivation, HEK 293T cells; NA = not active; read-out: EC50 (nM) GAL4
Could you give me the number in nM? Just the number is fine.

For the compound Cc1c(C)n(Cc2ccc(-c3ccccc3C(=O)O)cc2)c2ccc(C(=O)N[C@H](C)c3ccnc4ccccc34)cc12 [Example 181] , give its reported EC50.
5240

====

Assayed system: Gal-4-PPAR (human PPAR LBD fused to GAL4 DNA-binding domain) (Homo sapiens (Human), UniProt P37231)
Sequence (P37231 238-503): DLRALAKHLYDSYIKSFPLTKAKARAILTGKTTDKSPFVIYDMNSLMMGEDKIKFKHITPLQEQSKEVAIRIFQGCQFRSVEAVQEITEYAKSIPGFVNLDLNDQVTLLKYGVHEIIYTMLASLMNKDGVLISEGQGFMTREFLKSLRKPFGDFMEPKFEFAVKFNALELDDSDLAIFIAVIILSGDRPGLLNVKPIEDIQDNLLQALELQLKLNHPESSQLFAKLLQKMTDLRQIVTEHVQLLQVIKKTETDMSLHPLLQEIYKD
Assay procedure: GAL4-PPARG LBD / UAS-luciferase transactivation assay in HEK 293T cells
Assay type: cell-based
Condition details: GAL4 transactivation; read-out: EC50 (nM) GAL4
Readout kind: EC50 (nM)
Could you give me the number in nM? Just the number is fine.

Sample records with EC50:
For the compound Cc1c(C)n(Cc2ccc(-c3ccccc3C(=O)O)cc2)c2ccc(C(=O)N[C@@H](C)c3cc(C(F)(F)F)ccc3Cl)cc12 [Example 302] , give its reported EC50.
48

For the compound Cc1c(C)n(Cc2ccc(-c3ccccc3C(=O)O)cc2)c2ccc(C(=O)N[C@@H](C)c3cccc(C(F)(F)F)c3F)cc12 [Example 299] , give its reported EC50.
346

For the compound Cc1cccc([C@H](C)NC(=O)c2ccc3c(c2)c(C)c(C)n3Cc2ccc(-c3ccccc3C(=O)O)cc2)c1 [Example 295] , give its reported EC50.
60

Others:
For the compound Cc1c(C)n(Cc2ccc(-c3ccccc3C(=O)O)cc2)c2ccc(C(=O)N[C@@H](C)c3c(F)cccc3C(F)(F)F)cc12 [Example 300] , give its reported EC50.
167

For the compound Cc1c(C)n(Cc2ccc(-c3ccccc3C(=O)O)cc2)c2ccc(C(=O)N[C@@H](C)c3ccc(C(F)(F)F)cc3F)cc12 [Example 298] , give its reported EC50.
448
